Target: T1, human IL-1RAcP on 293T/17-FR cells (human, UniProt Q9NPH3 21-570)
T1 sequence (looked up): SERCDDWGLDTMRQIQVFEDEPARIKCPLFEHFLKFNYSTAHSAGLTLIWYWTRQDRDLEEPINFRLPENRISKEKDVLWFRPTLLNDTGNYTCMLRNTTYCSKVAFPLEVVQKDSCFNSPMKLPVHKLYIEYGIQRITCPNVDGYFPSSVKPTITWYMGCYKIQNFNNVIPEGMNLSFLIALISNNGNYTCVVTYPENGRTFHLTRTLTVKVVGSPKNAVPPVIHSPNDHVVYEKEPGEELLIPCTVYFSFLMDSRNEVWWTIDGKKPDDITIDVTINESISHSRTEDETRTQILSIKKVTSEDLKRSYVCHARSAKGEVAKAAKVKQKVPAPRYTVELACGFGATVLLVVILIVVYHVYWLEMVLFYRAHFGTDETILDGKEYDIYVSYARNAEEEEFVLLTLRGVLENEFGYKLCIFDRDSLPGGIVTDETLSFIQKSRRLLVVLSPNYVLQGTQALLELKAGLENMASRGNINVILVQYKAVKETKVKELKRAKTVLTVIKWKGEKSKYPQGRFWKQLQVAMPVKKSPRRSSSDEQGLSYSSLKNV
Assay: cell-based or functional assay
QUANTITY MEASURED: primary supernatant functional assay (% inh.), NF-kB luciferase reporter (%)
Give bare numbers, in %.

The examples below pair each entry with its known result.
| BINDER | OBSERVED VALUE |
| --- | --- |
| P013.S.01.B.F05 (antibody, V domains shown, rabbit monoclonal antibody; also called P013.A.00087.C06) VH: QSLEESGGRLVTPGGSLTLTCTVSGIDLSNYAMSWVRQAPGKGLEWIGSVISGGSTYYATWAKGRFTISKTSTTVDLKMTSLTTEDTATYFCARGCPGYNGDKYALDLWGPGTVVTVSS VL: AFEMTQTPSSVSEPVGGTVTIKCQASQSIHNYLSWYQQKPGQRPKLLIYRASTLASGVPSRFKGSGSGTEFTLTISGVESADAATYYCQQGATSYDIDNAFGGGTEVVVK | 89 |
| P013.S.02.B.C04 (antibody, V domains shown, rabbit monoclonal antibody; also called P013.A.00085.H07) VH: QQLEQSGGGLVKPGGSLELCCKASGFSLSSSYWICWVRQAPGKGLEWIGCIYAGSSGSTYYANWVNGRFTLSRDIDQSTGCLQLSSLTAADTAMYYCARSIVDFSSGWGDLWGQGTLVTVSS VL: ALVMTQTPSPVSAAVGGTVTINCQASEDIYSNLAWYQQKPGQPPKLLMYGVSTLASGVPSRFSDSGSGTEFTLTISGLQSDDAATYYCLGVYTYISDVYYTFGGGTEVVVK | 65 |
| P013.S.02.B.B02 (antibody, V domains shown, rabbit monoclonal antibody; also called P013.A.00045.H10) VH: LAQSGGGAEGGLVKPGGSLELCCEASGFSLSSSYWICWVRQAPGKGLEWIGCIYTGSSGNTYYASWVNGRFTLSRDIDRSTGCLQLNSLTAADTAMYYCARDANSHYMMNLWGQGTLVTVSS VL: ALVMTQTPSPVSAAVGGTVTINCQASEDIYSNLAWFQQKPGQPPKLLIYDASTLASGVPSRFSGSGSGTEFTLTISGLQSDDAATYYCLGVYTYISADGTLVYNAFGGGTEVVVR | 95 |
| P013.S.02.B.D04 (antibody, V domains shown, rabbit monoclonal antibody; also called P013.A.00086.A06) VH: QSLEESGGDLVQPGGSLTLTCKASGFSFSASYWICWVRQAPGKGLEWIGCIYIGGGGRYYASWAKGRFTISKTSSTTVTLQMTSLTAADTATYFCARDPVTSGSDYVYDLWGPGTLVTVAS VL: AYDMTQTPASVEVAVGGTVTIKCQASESISTWLAWYQQKPGQPPNLLIYRASTLASGVPSRFYGSGYGTEFTLTISGVESADAATYYCQQGYTVNNIDNVFGGGTEVVVK | 88 |

Query binder follows.
Task item: Tell me primary supernatant functional assay (% inh.), NF-kB luciferase reporter reported for P013.S.02.B.C05 (antibody, V domains shown, rabbit monoclonal antibody; also called P013.A.00085.F10) VH: QSLEESGGRLVTPGTPLTLSCTASGFSLSTYYMSWVRQAPGKGLEWIGYMHVGGFPVYASWAKGRFTISKTSTTVDLKITSPTIEDTATYFCARDFGPPNWTLDLWGQGTLVTVSS VL: DVVMTQTPASVEAAVGGTVTIKCQASQSISSYCSWYQQKPGQPPKLLIYRASTLESGVPSRFKGSGSGTEFTLTISDLESADAATYYCQSSYYDLLGNGFGGGTEVVVK
Reply: 66
